- assayTarget: T1, His14-MBP-METTL8 (Homo sapiens, UniProt B3KW44 1-407)
- T1 sequence: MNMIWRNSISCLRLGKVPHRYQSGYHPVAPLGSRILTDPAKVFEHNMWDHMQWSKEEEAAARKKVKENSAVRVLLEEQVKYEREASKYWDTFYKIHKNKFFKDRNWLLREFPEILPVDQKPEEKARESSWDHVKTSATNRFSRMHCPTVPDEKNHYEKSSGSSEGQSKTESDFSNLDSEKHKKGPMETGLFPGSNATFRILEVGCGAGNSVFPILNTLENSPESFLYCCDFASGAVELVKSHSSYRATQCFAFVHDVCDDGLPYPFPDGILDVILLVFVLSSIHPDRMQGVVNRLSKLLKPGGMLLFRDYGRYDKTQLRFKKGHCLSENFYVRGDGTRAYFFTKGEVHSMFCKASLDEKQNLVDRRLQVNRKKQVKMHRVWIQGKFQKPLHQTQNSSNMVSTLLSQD
- assayExplanation: fluorescence anisotropy; 30 mM phosphate pH 7.3, 200 mM KCl, 20 nM labelled oligonucleotide, 0-2 uM protein, 5 min at room temperature, measured at 22 C
- runConditions: protein: recombinant; tags: N-terminal His14-MBP; label: 5' fluorescein; hairpin

binder	Kd, nM
GUUGGCUUGAAACCAGCU (structured_RNA, i6A at strand position 11 (A37)) [mt-tRNASer(UCN) i6A37 ASL]	200
